Origin of measurements: patent US20170189505A1

system_tested: HLA-A*24 (human)
measurement_protocol: UV peptide exchange, anti-b2m ELISA
binders and their reported peptide exchange yield
quantity: peptide exchange yield

KFVDSTFYL [SEQ ID No 282 peptide …]	> 75%
TYIKPISKL [SEQ ID No 273 peptide …]	50 to 75%
TYTTVPRVAF [SEQ ID No 172 peptide …]	> 75%
VYEDQVGKF [SEQ ID No 170 peptide …]	20 to 49%
QYLENLEKL [SEQ ID No 224 peptide …]	50 to 75%
LYLKLWNLI [SEQ ID No 214 peptide …]	50 to 75%
WYVNGVNYF [SEQ ID No 189 peptide …]	20 to 49%
EYPLVINTL [SEQ ID No 219 peptide …]	50 to 75%
